Item-by-item account of Enzyme Activity Endpoint Assay (purified): scIgG
test_target: pooled human IgG (human IgG1, 2, 3 and 4)
measurement_name: Enzyme Activity Endpoint Assay (purified): scIgG (ng/µL)

1. PRT-585 (protein) MANQEIRYSKATPSTITSVWTKGVTPPEQFIYNEDVLHAPYIANQGWYDITKTFNGKDDLLCGAATAGNMLHWWFDQNKEQIERYLKKHPEKQKINFNGEQMFDVKEAIDTKDSQTNSKLFEYFKDKAFPYLSTKHLGVFPDHVIDMFINGYRLSLTNHGPTPVKEQTKDPRGGIFDAVFTRGDQSKLLTSRHDFKEKTLNEISDLIKQELTEGKALGLSHTYANVRINHVINLWGADFNAEGNLEAIYVTDSDSNASIGMKKYYVGVNSAGKVAISAKEIEGDNIGAQVLGLFTLSTGQDIWEQTNLEHHHHHH | 229
2. PRT-420 (protein) MTITSVWTKGVTPPTPEDFRYNNEDVLHAPYVANQGWYDITKTFDGKDNLLCGAATAGNMLHWWFDQNKEEIERYLKKHPEKQKIIFNNQEWFDVKAAIDTKDSQTNSKLFNYFRDKAFPNLSARQLGVMPDLVLDMFINGYYLNLGKTQSTDVNRPYQDKDKRGGIFDAVFTRGDQTTLLTARHDLKNKGLNEISDLIKQELTEGKALALSHTYANVRINHVINLWGADFDAEGNLIAIYVTDSDANASIGMKKYFVGVNANGKVAISAKKIEGDNIGAQVLGLFTLSTGQDIWQKLS | 0
